- test-name: total protein half-life in vivo (active degradation + dilution); higher = more stable protein
- test-parameters: E. coli NCM3722 delta-hslV; growth: N-lim chemostat; doubling time 6 h
quantity-name: total protein half-life in vivo (h)
Reply numerically in h, unit not repeated.

| sequence-content | value-unit | total protein half-life in vivo |
| --- | --- | --- |
| MQYNPLGKTDLRVSRLCLGCMTFGEPDRGNHAWTLPEESSRPIIKRALEGGINFFDTANSYSDGSSEEIVGRALRDFARREDVVVATKVFHRVGDLPEGLSRAQILRSIDDSLRRLGMDYVDILQIHRWDYNTPIEETLEALNDVVKAGKARYIGASSMHASQFAQALELQKQHGWAQFVSMQDHYNLIYREEEREMLPLCYQEGVAVIPWSPLARGRLTRPWGETTARLVSDEVGKNLYKESDENDAQIAERLTGVSEELGATRAQVALAWLLSKPGIAAPIIGTSREEQLDELLNAVDITLKPEQIAELETPYKPHPVVGFK | h | 4.55 |
| MSKRTFAVILTLLCSFCIGQALAGGIVLQRTRVIYDASRKEAALPVANKGAETPYLLQSWVDNIDGKSRAPFIITPPLFRLEAGDDSSLRIIKTADNLPENKESLFYINVRAIPAKKKSDDVNANELTLVFKTRIKMFYRPAHLKGRVNDAWKSLEFKRSDHSLNIYNPTEYYVVFAGLAVDKTDLTSKIEYIAPGEHKQLPLPASGGKNVKWAAINDYGGSSGTETRPLQ | h | 6.17 |

We next turn to a different sequence, shown below.
Note to self: total protein half-life in vivo recorded for "MKILVIGPSWVGDMMMSQSLYRTLQARYPQAIIDVMAPAWCRPLLSRMPEVNEAIPMPLGHGALEIGERRKLGHSLREKRYDRAYVLPNSFKSALVPFFAGIPHRTGWRGEMRYGLLNDVRVLDKEAWPLMVERYIALAYDKGIMRTAQDLPQPLLWPQLQVSEGEKSYTCNQFSLSSERPMIGFCPGAEFGPAKRWPHYHYAELAKQLIDEGYQVVLFGSAKDHEAGNEILAALNTEQQAWCRNLAGETQLDQAVILIAACKAIVTNDSGLMHVAAALNRPLVALYGPSSPDFTPPLSHKARVIRLITGYHKVRKGDAAEGYHQSLIDITPQRVLEELNALLLQEEA" was 5.71

Data provenance is the supplement of paper PMC11246515.
